# melting point per entry

CCC(CC)Nc1nc(C)nc(N2CCc3cc(Cl)cc(Cl)c32)c1C#N = 163 to 165 °C
Cc1ccc(C(=O)NCC(N)=O)cc1-n1c(C)cc(OCc2ccccc2CNC(=O)Nc2cc(C(C)(C)C)nn2-c2ccc(O)c(Cl)c2)c(Cl)c1=O = 228 to 230 °C
CCOC(=O)C(C#N)=Cc1cccc(C(F)(F)F)c1Cl = 50 °C
CC(C)(C)OC(=O)NC(Cc1ccccc1)C(=O)Oc1ccc(/C=c2\[nH]c(=O)/c(=C/c3ccccc3)[nH]c2=O)nc1 (stereo not given) = 188 °C
COc1ccc(N(CCCC(O)CO)S(=O)(=O)c2c(F)c(F)c(F)c(F)c2F)cc1 (stereo not given) = 116 to 118 °C
O=C(Nc1ccc(C(=O)N2CCc3cn[nH]c3-c3sccc32)c(Cl)c1)c1cc(Cl)ccc1F = 282 to 288 °C
COC(=O)NNC(=O)c1cc(OC)c(OC)c(OC)c1 = 145 °C
CC(C)(C)OC(=O)N1CCC(c2ccc(N3C[C@H](CNC(=O)C(Cl)Cl)OC3=O)cc2F)CC1 = 168 to 170 °C
CN1CCN(S(=O)(=O)NC(Cc2ccccc2)C(=O)O)CC1 (stereo not given) = > 200 °C

// next item, melting point requested
melting point for Cc1ccc(-c2ccc3c(c2)C=C(C(=O)Nc2ccc(CN(C)C4CCOCC4)cc2)CCS3(=O)=O)s1 ?
229 to 231 °C

---

parameter measured: melting point

CCOCc1nc2c(N)nc3ccccc3c2n1CCCC(=O)N1CCOCC1 = 201 to 203 °C
COc1cc(/C=C/C(=O)CC(=O)Cc2ccccc2)ccc1O = 106 °C
N#Cc1ccc(Cn2cncc2CCCO)cc1 = 121 to 123 °C

melting point for CCOc1nccc(CC(=O)O)c1NC(=O)OC(C)(C)C ?
94 to 95.5 °C

melting point for CC(C)N1CC(C(S)Oc2cccc3cnccc23)OC1=O (stereo unspecified) ?
237 to 239 °C

melting point for Cn1c2ncccc2c(=O)n2nccc12 ?
249 °C

melting point for N#CCC1(c2ccc(Cl)cc2)CCC1 ?
63 to 65 °C

melting point for CCC(CC)C(=O)C1=C(O)c2cc(OC)c(OC)c(OC)c2C(O)(c2ccc(OC)c(OC)c2)C1C(=O)OC (stereo unspecified) ?
156 to 157 °C

melting point for COc1ccc(COc2ccc3[nH]c4c([N+](=O)[O-])ccc(Cl)c4c(=O)c3c2)cc1 ?
187 to 189 °C

melting point for O=C(Oc1ccccc1)N1CCN2C(=O)OC(c3ccccc3)(c3ccccc3)C2C1 (stereo unspecified) ?
189 to 191 °C

melting point for S=C1CNC(=S)c2cc(Cl)ccc2N1 ?
273 to 274 °C

---

parameter measured: melting point

// below: answered compounds
COc1cn(-c2cccc(C(F)(F)F)c2)nc(-c2ccnn2-c2ccccc2)c1=O = 139 to 141 °C
C[C@@H](NC(=O)OCc1ccccc1)[C@H](O)C(=O)O = 156 to 158 °C

// next item, melting point requested
melting point for COc1ccc(-c2cn(C)cc(-c3ccccc3)c2=O)cc1C ?
157 to 160 °C

---

# melting point per entry

COc1cc(Oc2c(Cl)cccc2C(F)(F)F)nc(C(=O)O)c1 = 110 to 112 °C
CCCc1c(OCCCSc2ccc(C(=O)CCCO)cc2)ccc(C(C)=O)c1O = 73 to 75 °C
N#Cc1c(Cl)[nH]c(Cl)c1Cl = > 300 °C
COc1cc2c(cc1OC)C(=O)C(=Cc1cc(C)c([N+](=O)[O-])c(C)c1)C2 = 242 to 243 °C

melting point for Clc1cc(Cl)c(C#C[Si](c2ccccc2)(c2ccccc2)c2ccccc2)c(Cl)c1 ?
115 to 120 °C

melting point for CCOC(=O)C1(C(=O)OCC)CCC2(CC1)NCCc1cc(OC)ccc12 ?
81 to 83 °C

melting point for CC(Cc1cccnc1)(NC(=O)OC1C2CC3CC(C2)CC1C3)C(=O)NC(CO)Cc1ccccc1 (stereo not given) ?
63 to 67 °C

melting point for Fc1ccc(CC(=S)N2CCCCC2)cc1 ?
65.5 to 67.5 °C

melting point for CC(C)=CCCC(C)=CCCC(C)=CC=CC(C)=CC(N)=O ?
63 to 65 °C

melting point for CCCc1nc2c(N)nc(C)c(C)c2n1CCCCS(N)(=O)=O ?
167 to 169 °C

---

parameter measured: melting point

melting point for CSc1[nH]cc(CCc2ccccc2)c1[N+](=O)[O-] ?
198 to 200 °C

melting point for COc1cccc(-c2nc3ccc(OC)cc3s2)c1 ?
155 to 157 °C

melting point for Cc1oc(-c2ccc(Cl)cc2)cc1C(=O)NCc1ccc2cc(O)ccc2c1 ?
202 to 204 °C

melting point for CCn1nc(C(F)(F)F)c(CS(=O)(=O)C2=NOC(C)(CCl)C2)c1OC (stereo not drawn) ?
139 to 140 °C

melting point for CCCC1=C(c2ccc(F)c(F)c2)C(=NO)CC1 ?
136 to 137 °C

---

# melting point per entry

O=C1CC(Cl)C(=O)N1C1CCCCC1 (configuration not stated) = 63 to 64 °C
Cc1ccccc1Sc1cccc(CO)c1O = 75 to 77 °C
COc1ccc2c(c1)c1c(n2C)CCC(Cc2nc[nH]c2C)C1=O (configuration not stated) = 227 to 229 °C
Nc1sc(-c2cccc(F)c2)c(CN(C2CCCCC2)C2CCCCC2)c1C(=O)c1ccc(Cl)cc1 = 205 to 207 °C
Cc1nn(-c2cc(O)c(Cl)cc2F)c(=O)n1C(F)F = 147 to 152 °C

melting point for CN1C(=O)NC(=O)C(C=O)C1=O (configuration not stated) ?
197 to 199 °C

melting point for COC(=O)c1ccc(-c2nc(-c3ccc(OC)cc3)co2)cc1 ?
200 to 202 °C

---

# melting point per entry

// below: answered molecules
O=C1Nc2ccc(-c3cccc(Cl)c3)cc2C(c2ccccc2)O1 (configuration not stated) = 177 to 178 °C
C[Si](C)(C)c1ccc(N)cc1 = 123 to 124 °C
Cc1cc2c(-c3cccc(-c4noc(=S)[nH]4)c3)c(CC(=O)Nc3ccc(F)cc3C(F)(F)F)c(=O)oc2cc1Cl = 178 to 180 °C
CN(CCO)Cc1ccc(-c2ccc3c(Nc4ccc(Sc5nccn5C)c(Cl)c4)c(C#N)cnc3c2)nc1 = 197 to 199 °C
CN1CC(c2cc(OCc3ccccc3)ncn2)=C(O)C1=O = 203 to 204 °C

melting point for Nc1ncc2ncn(CCO)c2n1 ?
173 to 175 °C

---

# melting point per entry

// below: answered compounds
Cc1ccc(S(=O)(=O)OCCC2(O)CCc3cc(F)ccc3C2C(C)C)cc1 (stereo not drawn) = 65 to 67 °C
CCOc1noc(-c2ncn(C(c3ccccc3)(c3ccccc3)c3ccccc3)n2)c1C = 181 to 183 °C
O=S(=O)(CC=Cc1ccccc1)CCCOC1CCCCO1 (stereo not drawn) = 45 °C
N#Cc1cc(-c2nc3cncnc3s2)ccc1Oc1ccc(O)cc1 = > 250 °C
N#CCc1cccc2c(C3CCCCC3)nccc12 = 85.3 to 85.6 °C
COc1cc2c(c(C(C)(C)C)c1)OC(=O)C2 = 117 to 118 °C
CCOC(=O)n1c(=O)n(CCN2CCN(c3ccccc3OC)CC2)c(=O)c2sccc21 = 121 to 122 °C
CCOC(=O)C1=C(N)NC2=C(C(=O)CCC2)C1c1cccc(C)n1 (stereo not drawn) = > 260 °C
Cc1c(C(=O)C(N)=O)c2c(OCC(=O)O)cccc2n1Cc1ccccc1 = 218 to 220 °C
CC(C)(C)OC(=O)Nc1ccc2ccc(S(C)(=O)=O)cc2c1Br = 166 to 167 °C

melting point for COC(=O)CCC(C(=O)c1cccc(O)c1)c1ccccc1C (racemic) ?
101 to 103 °C

melting point for COc1ccc(-c2ccc(C=O)c3ccccc23)cc1F ?
137 to 138 °C

melting point for O=S(CCCCCOc1ccc(C2=C(c3ccc(O)cc3)CCCc3cc(O)ccc32)cc1)CCCC(F)(F)C(F)(F)F (stereo not drawn) ?
165 to 168 °C

melting point for COc1ccc(N2C(=O)CN(C(C)C)C2=O)c(F)c1 ?
88 to 90 °C

melting point for CC(=O)OCC1OC(n2cc(Cc3ccc(C4CC4)cc3)c3c(F)cccc32)C(OC(C)=O)C(OC(C)=O)C1OC(C)=O (stereo not drawn) ?
190 to 192 °C

melting point for O=C(Nc1c[nH]nc1C(=O)NCc1ccccc1)c1ccccn1 ?
204 to 205 °C

melting point for Oc1ccc(C2CCC(NCC(O)Cc3ccccc3)CC2)cc1 (racemic) ?
52 to 57 °C

melting point for C=CCNC(=O)C1=Cc2c1ccc(OC)c2OC ?
98 to 99 °C

melting point for CC1(C)C(=O)Nc2cc(O)c([N+](=O)[O-])cc21 ?
244 to 247 °C

melting point for CC(CN1CCCC1)N1c2ccccc2Sc2ccc(C(=O)NCc3ccccc3[N+](=O)[O-])cc21 (racemic) ?
95 °C

melting point for CC(C)Oc1nc(O)ns1 ?
74 °C
